testProtocol: qHTS Assay for Identification of Small Molecule Antagonists for NFkB Signaling Pathway. (AID 624479);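 note: pathway stimulated with TNF alpha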
conditionsUsed: NFkB pathway reporter cell assay, antagonist mode; series mostly up to 38.3 µM
Active and inactive are the calls of the source. Calls come from the whole dose curve.
Give your call using only these classes: active, inactive

// known answers, use as guide
Cc1c(-c2ccc(O)cc2)n(Cc2ccc(OCCN3CCCCCC3)cc2)c2ccc(O)cc12 :: inactive
CCN(CC)CCn1c(=O)c(Cc2ccc(OC)cc2)nc2ccccc21 :: inactive

Recorded test call requested for COc1cc2nc(N3CCCN(C)CC3)nc(NC3CCN(Cc4ccccc4)CC3)c2cc1OC
active

Recorded test call requested for CC(C)C[C@H](NC(=O)[C@H](CCc1ccccc1)NC(=O)CN1CCOCC1)C(=O)N[C@@H](Cc1ccccc1)C(=O)N[C@@H](CC(C)C)C(=O)[C@@]1(C)CO1
active

Recorded test call requested for CNC(=O)c1cc(Oc2ccc(NC(=O)Nc3ccc(Cl)c(C(F)(F)F)c3)cc2)ccn1
active

---

System: HB3
testProtocol: qHTS profiling for inhibitors of Plasmodium falciparum proliferation (AID 504749); note: nearly all actives have a fitted effect of over 60% in size
conditionsUsed: P. falciparum in erythrocytes, SYBR Green DNA, 72 h; series mostly up to 28.7 µM
Inconclusive results are not listed. Active and inactive are the calls of the source. Calls follow the shape of the dose curve; as a rule, active = well fitted inhibition curve with a large enough effect; inconclusive = small, poorly fitted or top-dose-only effect; inactive = flat fitted curve, though single readings scatter.
Give your call using only these classes: Y (active), N (inactive)

// known answers, use as guide
O=C(O)c1cc(=O)[nH]c(=O)[nH]1 :: N
CNC(=O)c1cc(Oc2ccc(NC(=O)Nc3ccc(Cl)c(C(F)(F)F)c3)cc2)ccn1 :: Y
COc1ccc(-c2ccc3cc(C(=O)O)ccc3c2)cc1C12CC3CC(CC(C3)C1)C2 :: N
CCn1cc(C(=O)O)c(=O)c2cc(F)c(N3CCN(C)CC3)cc21 :: N
CC(N)C12CC3CC(CC(C3)C1)C2 (stereo unspecified) :: N

Now examine the next entry.
Recorded test call requested for Nc1ccc(S(=O)(=O)Nc2ccccn2)cc1
N

---

Tested on: CP256
testProtocol: qHTS profiling for inhibitors of Plasmodium falciparum proliferation (AID 504749); note: nearly all actives have a fitted effect of over 60% in size
conditionsUsed: P. falciparum in erythrocytes, SYBR Green DNA, 72 h; series mostly up to 28.7 µM
Records with an inconclusive call do not appear. Calls of active or inactive are those of the source. Calls follow the shape of the dose curve; as a rule, active = well fitted inhibition curve with a large enough effect; inconclusive = small, poorly fitted or top-dose-only effect; inactive = flat fitted curve, though single readings scatter.
Give your call using only these classes: active, inactive

Recorded test call requested for C[C@]12C=CC(=O)C=C1CC[C@@H]1[C@@H]2C(=O)C[C@@]2(C)[C@H]1CC[C@]2(O)C(=O)CO
inactive

Recorded test call requested for CCOC(=O)[C@H](CCc1ccccc1)N[C@H]1CS[C@H](c2cccs2)CN(CC(=O)O)C1=O
inactive

Recorded test call requested for Cc1oc(=O)oc1CN1CCN(c2cc3c(cc2F)c(=O)c(C(=O)O)c2n3C(C)S2)CC1 (stereo not given)
active

Recorded test call requested for C#CCN[C@@H]1CCc2ccccc21
inactive

Recorded test call requested for COc1cc2c(Nc3ccc(Br)cc3F)ncnc2cc1OCC1CCN(C)CC1
active

Recorded test call requested for CC[C@H](NC(C)C)[C@H](O)c1ccc(O)c2[nH]c(=O)ccc12
inactive

---

testProtocol: Quantitative High-Throughput drug screen in 47 multiple myeloma cell lines against the NCATS MIPE library collection: KMS27_JCRB cell viability assay (AID 1918970); note: nearly all actives have a fitted effect of over 30% in size
conditionsUsed: KMS27 myeloma cells, CellTiter-Glo ATP viability, 48 h; series mostly up to 45.8 µM
Records with an inconclusive call do not appear. The source made the active and inactive calls. Calls follow the shape of the dose curve; as a rule, active = well fitted cell-killing curve with a large enough effect; inconclusive = small, poorly fitted or top-dose-only effect, or effect the other way; inactive = no such curve, though single readings can be large or run the other way.
Give your call using only these classes: yes for active, no for inactive

// known answers, use as guide
O=C(O)C1CCCN(CCC=C(c2ccccc2)c2ccccc2)C1 (configuration not stated) :: no
CN1CCN(c2c(F)cc3c(=O)c(C(=O)O)cn(CCF)c3c2F)CC1 :: no
CN(C)CCc1c[nH]c2ccc(CS(=O)(=O)N3CCCC3)cc12 :: yes

Recorded test call requested for COc1ccc2cc3[n+](cc2c1OC)CCc1cc2c(cc1-3)OCO2
yes

Recorded test call requested for O=C(O)CSCC(=O)NC1CCSC1=O (configuration not stated)
no

Recorded test call requested for COc1cc(NS(=O)(=O)c2ccc(N)cc2)nc(OC)n1
no

Recorded test call requested for CNCC[C@H](Oc1cccc2ccccc12)c1cccs1
yes

Recorded test call requested for COc1cc(NCc2ccc3nc(N)nc(N)c3c2C)cc(OC)c1OC
yes

Recorded test call requested for CC1=NN(c2ccccc2)C(=O)C1
no

---

Test system: SC27B
testProtocol: qHTS profiling for inhibitors of Plasmodium falciparum proliferation (AID 504749); note: nearly all actives have a fitted effect of over 60% in size; note: potency is the fitted concentration of half-maximal effect
conditionsUsed: P. falciparum in erythrocytes, SYBR Green DNA, 72 h; series mostly up to 28.7 µM
Results filed as inconclusive are left out. Calls of active or inactive are those of the source. Calls follow the shape of the dose curve; as a rule, active = well fitted inhibition curve with a large enough effect; inconclusive = small, poorly fitted or top-dose-only effect; inactive = flat fitted curve, though single readings scatter.
propertyMeasured: Potency

Please review the following examples before continuing.
NC(N)=NC(N)=NCCc1ccccc1 :: inactive
Cc1ccnc2c1NC(=O)c1cccnc1N2C1CC1 :: inactive
Cc1ncc([N+](=O)[O-])n1CCO :: inactive
COc1cc(NS(=O)(=O)c2ccc(N)cc2)nc(OC)n1 :: inactive
COc1cc(NCc2ccc3nc(N)nc(N)c3c2C)cc(OC)c1OC :: 2240 nM (active)
Cc1cccc(Nc2ccncc2S(=O)(=O)NC(=O)NC(C)C)c1 :: inactive

We next turn to a different compound, shown below.
So what does the record say about Potency for OC(Cn1cncn1)(Cn1cncn1)c1ccc(F)cc1F ?
inactive

---

testProtocol: qHTS of pediatric cancer cell lines to identify multiple opportunities for drug repurposing: Confirmatory screen for Rh41 cells (AID 1347123)
conditionsUsed: Rh41 rhabdomyosarcoma cells, viability/cytotoxicity qHTS; series mostly up to 45.9 µM
Inconclusive results are not listed. Activity calls are given as the source filed them. Calls come from the whole dose curve; as a rule, active = well fitted cell-killing curve with a large enough effect; inconclusive = small, poorly fitted or top-dose-only effect; inactive = no such curve, though single readings can be large or run the other way.
Give your call using only these classes: active, inactive

COc1ccc(-c2ccc3cc(C(=O)O)ccc3c2)cc1C12CC3CC(CC(C3)C1)C2 :: inactive
CO[C@@]12[C@H](COC(N)=O)C3=C(C(=O)C(C)=C(N)C3=O)N1C[C@@H]1N[C@@H]12 :: active
Nc1nc(N)c2nc(CNc3ccc(C(=O)NC(CCC(=O)O)C(=O)O)cc3)cnc2n1 (centres undefined) :: inactive

Recorded test call requested for O=NN(CCCl)C(=O)NC1CCCCC1
inactive

Recorded test call requested for Cn1nnc2c(C(N)=O)ncn2c1=O
inactive

Recorded test call requested for CC(C)(C#N)c1cc(Cn2cncn2)cc(C(C)(C)C#N)c1
inactive

Recorded test call requested for CS(=O)(=O)c1ccc([C@@H](O)[C@@H](CO)NC(=O)C(Cl)Cl)cc1
inactive

Recorded test call requested for CNNCc1ccc(C(=O)NC(C)C)cc1
inactive

Recorded test call requested for CCc1c2c(nc3ccc(OC(=O)N4CCC(N5CCCCC5)CC4)cc13)-c1cc3c(c(=O)n1C2)COC(=O)[C@]3(O)CC
active

Recorded test call requested for COc1ccc(C(=O)CC(=O)c2ccc(C(C)(C)C)cc2)cc1
inactive

---

Test system: FAB9
testProtocol: qHTS profiling for inhibitors of Plasmodium falciparum proliferation (AID 504749); note: nearly all actives have a fitted effect of over 60% in size
conditionsUsed: P. falciparum in erythrocytes, SYBR Green DNA, 72 h; series mostly up to 28.7 µM
Records with an inconclusive call do not appear. Active and inactive are the calls of the source. The call rests on the fitted dose curve; in most records, active means well fitted inhibition curve with a large enough effect; inconclusive means small, poorly fitted or top-dose-only effect; inactive means flat fitted curve, though single readings scatter.
Give your call using only these classes: active, inactive

// known answers, use as guide
CCc1c2c(nc3ccc(OC(=O)N4CCC(N5CCCCC5)CC4)cc13)-c1cc3c(c(=O)n1C2)COC(=O)[C@]3(O)CC :: inactive
Cc1ccnc2c1NC(=O)c1cccnc1N2C1CC1 :: inactive
O=c1cc(O)c(Cl)c[nH]1 :: inactive

Recorded test call requested for COc1ccc(-c2ccc3cc(C(=O)O)ccc3c2)cc1C12CC3CC(CC(C3)C1)C2
inactive

Recorded test call requested for CCn1cc(C(=O)O)c(=O)c2cc(F)c(N3CCNCC3)cc21
inactive

Recorded test call requested for COc1ncnc(NS(=O)(=O)c2ccc(N)cc2)c1OC
inactive

Recorded test call requested for CCN(C)C(=O)Oc1cccc([C@H](C)N(C)C)c1
inactive

Recorded test call requested for NC(=O)c1cccnc1
inactive

---

Test system: OV90
testProtocol: Primary qHTS to identify gynecologic anti-cancer compounds using libraries of approved drugs and bioactive compounds (AID 1345084); note: nearly all actives have a fitted effect of over 55% in size
conditionsUsed: Gynecologic cancer cell panel viability, ATPlite luminescence, 48 h; series mostly up to 57.5 µM
Inconclusive results are not listed. Calls of active or inactive are those of the source. Calls come from the whole dose curve; as a rule, active = well fitted cell-killing curve with a large enough effect; inconclusive = small, poorly fitted or top-dose-only effect, or effect the other way; inactive = flat fitted curve, though single readings scatter.
Give your call using only these classes: 1 for active, 0 for inactive

O=C(O)c1cccnc1 :: 0

Recorded test call requested for CC(C(=O)O)c1ccc2c(c1)CC(=O)c1ccccc1S2 (configuration not stated)
0

Recorded test call requested for Cc1ccnc2c1NC(=O)c1cccnc1N2C1CC1
0

Recorded test call requested for CS(=O)(=O)c1ccc([C@@H](O)[C@@H](CO)NC(=O)C(Cl)Cl)cc1
0

Recorded test call requested for Cn1nnc2c(C(N)=O)ncn2c1=O
0

Recorded test call requested for COc1ccccc1OCC(O)COC(N)=O (configuration not stated)
0

Recorded test call requested for CN1CCN(c2c(F)cc3c(=O)c(C(=O)O)cn4c3c2OCN4C)CC1
0

Recorded test call requested for O=C(O)CSCC(=O)NC1CCSC1=O (configuration not stated)
0

Recorded test call requested for COc1ccc2cc3[n+](cc2c1OC)CCc1cc2c(cc1-3)OCO2
1
